Just for reference, ChEMBL document CHEMBL3608272 is where these values come from.

system: A549; assay: Anti-proliferative activity against human A549 cells incubated for 48 hrs by SRB assay; type: functional; conditions: A549, 48 h
Experimental Readout: GI50 (µM)

Example cases with answers are listed next.
Mol	Experimental Readout	Endpoint Result
CC/C(=C(\c1ccccc1)c1ccc(OCCN(C)C)cc1)c1ccccc1	GI50	24.4
CSc1ccc(C2=C(c3ccccc3)C3(C=CC(=O)C=C3)N(C)C2=O)cc1	GI50	50.4
CN1C(=O)C(c2ccc(C(F)(F)F)cc2)=C(c2ccccc2)C12C=CC(=O)C=C2	GI50	30.3
Cc1ccc(C2=C(c3ccccc3)C3(C=CC(=O)C=C3)N(C)C2=O)cc1Cl	GI50	21.1

I = CN1C(=O)C(c2cc3ccccc3s2)=C(c2ccccc2)C12C=CC(=O)C=C2
II = COc1ccc(C2=C(c3ccccc3)C3(C=CC(=O)C=C3)OC2=O)cc1
Of I and II , which one carries the higher reported GI50? To answer, give the label that identifies your chosen option. I
(I: 18.8 µM, II: 7.3 µM)
